- assay.summary: NCI Yeast Anticancer Drug Screen. Data for the mec2-1 strain (AID 157)
- run.parameters: S. cerevisiae mec2-1 strain, at 50.0 µM, hits give high values
Compounds without any hit were thinned out: in the full panel of roughly 79,000, 15% have a hit.
Examples of compounds with documented growth inhibition follow.
State just the number; it will be interpreted in %.

>>> print(df.to_string())
                                   compound  result
0  Cc1cc2ncn(C3CCCCO3)c2cc1C (stereo unspecified)   -10.8
1  c1ccc(C2SCCN2c2ccccc2)cc1 (stereo unspecified)   -0.35
2  C[C@]12CC[C@@H]3c4ccc(OS(=O)(=O)O)cc4CC[C@H]3[C@@H]1CCC2=O    -0.4
3  O=C1CCC2(c3ccccc3)Nc3ncccc3N12 (stereo unspecified)     2.8

Challenge: Would you mind telling me what growth inhibition value was observed for CCCCOC(=O)/C(=C\c1ccc(OC(C)=O)c(OC)c1)NC(=O)c1ccccc1 ?
Response given: 7.6

Challenge: Entry under review: CCCCOC(=O)C1CC2OC2CC1C(=O)OCCOCCOC(=O)C1CC2OC2CC1C(=O)OCCCC (stereo unspecified) . Reported growth inhibition?
Response given: -6.45

Challenge: Suppose we examine the compound Cc1cc(Cl)c(Cl)cc1NC(=O)c1ccc(Cl)cc1Cl ; what growth inhibition value has been reported?
Response given: 6.9

Challenge: Could you share which growth inhibition value was measured for O=C1CCCC2=C1CC1=C(CCCC1=O)N2c1ccccc1 ?
Response given: -20.9

Challenge: Could you share which growth inhibition value was measured for Clc1ccc2sc(-n3ccc4ccccc43)nc2c1 ?
Response given: -12.3

Challenge: Quick one: growth inhibition of COc1ccc(N=C2S/C(=N\C(=Nc3ccccc3)SCc3ccccc3)N(c3ccccc3)C2=Nc2ccc(OC)cc2)cc1 ?
Response given: -5.85

Challenge: GET /values?readout=growth inhibition&item= O=C(O)c1cc(-c2ccccc2)nc2c(Cl)cc(Cl)cc12
Response given: -28.8
